Hello, the source for this data is PubChem BioAssay (NCI), in case you need it.

System: IGROV1 ovarian
Assay: NCI-60 one-dose screen, 48 h (100 = growth as untreated, 0 = no growth, -100 = all killed)
Settings: 10 µM unless noted
About 83,000 compounds went through this panel and 20% of them were active in at least one assay; those are over-represented in the sample as a whole.
measuredProperty: growth (%)

compound=COc1ccc(Cn2c(Br)c3c(c2-c2cc(OC)c(OC)c(OC)c2)CCc2sc(N)nc2-3)cc1 measuredproperty=growth unitofmeasurement=% measuredresult=36.7
compound=Nc1nc(N)c(C=Nc2ccc(Br)cc2)c(Nc2ccc(Br)cc2)n1 measuredproperty=growth unitofmeasurement=% measuredresult=86.3
compound=CCCCCCCC/C=C\CCCCCCCCOc1cccc(CC(=O)NCC[N+]2(C)CCCCC2)c1 measuredproperty=growth unitofmeasurement=% measuredresult=-37
compound="CC1=CN2C(=NC3=C(CCCC/C3=C\\c3ccccc3)C2c2ccccc2)S1 (centres undefined)" measuredproperty=growth unitofmeasurement=% measuredresult=97.9
compound="O=C(N/N=C/c1ccc(OC(F)F)c(OC2CCCC2)c1)c1cnn2c1NC(c1ccccc1)C2 (centres undefined)" measuredproperty=growth unitofmeasurement=% measuredresult=83.4
compound="CCOC(=O)c1cn2c3c(cc(F)cc3c1=O)C(CC)c1ccccc1C2 (centres undefined)" measuredproperty=growth unitofmeasurement=% measuredresult=93.1
compound=O=C1/C(=C/c2ccc(Cl)cc2)N=C(c2ccccc2)N1CCc1cccs1 measuredproperty=growth unitofmeasurement=% measuredresult=55.3
compound=O=C1/C(=C/c2ccc(F)cc2)CN(Cc2cn(CCNc3ccnc4cc(Cl)ccc34)nn2)C/C1=C\c1ccc(F)cc1 measuredproperty=growth unitofmeasurement=% measuredresult=0.407
compound=CCCCCCCC/C=C\CCCCCCCCOc1cccc(CC(=O)NCC[N+]2(C)CCCC2)c1 measuredproperty=growth unitofmeasurement=% measuredresult=-15.7

* * *

growth values, listed per item
System: MDA-MB-435 melanoma
Experiment: NCI-60 one-dose screen, 48 h (100 = growth as untreated, 0 = no growth, -100 = all killed)
Settings: 10 µM unless noted
The panel holds about 83,000 compounds, 20% with a hit somewhere; the sample as a whole holds those more often. The source made the active and inactive calls. Rule for the calls: active = growth percent below 10; inactive = the rest.
measuredProperty: growth

compound=CCCCCCCCCCCCSC1=CC(=O)C=CC1=O measuredproperty=growth measuredresult="102% (inactive)"
compound=CCOc1ccc(/C=N\N2CCCCCC2)cc1OCC measuredproperty=growth measuredresult="53.2% (inactive)"
compound=CCC(=O)Nc1nnc(Cc2ccc(OC)c(OC)c2)s1 measuredproperty=growth measuredresult="-52% (active)"
compound=Cc1cc(=O)c2c(C)ccc(C)c2[nH]1 measuredproperty=growth measuredresult="104% (inactive)"
compound="COc1ccc(C2=NOC(CC(=O)N(CCO)CCO)C2)cc1OC1CCCC1 (stereo unspecified)" measuredproperty=growth measuredresult="104% (inactive)"
compound=CC1=C(C/C=C(\C)CCC[C@H](C)CCC[C@H](C)CCCC(C)C)C(=O)c2ccccc2C1=O measuredproperty=growth measuredresult="108% (inactive)"

* * *

Tested on: OVCAR-5 ovarian
Assay: NCI-60 one-dose screen, 48 h (100 = growth as untreated, 0 = no growth, -100 = all killed)
Settings: 10 µM unless noted
This is part of a sample that, as a whole, favours compounds with a hit. Of some 83,000 tested, about 20% had one in any assay.
measuredProperty: growth (%)

molecule=O=S(=O)(Nc1ncccn1)c1ccc(Nc2ccc3nnc(-c4ccncc4)n3n2)cc1 systemname="OVCAR-5 ovarian" unitofmeasurement=% measuredresult=94.3
molecule="Cc1ccc(S(=O)(=O)N2CCc3ccc(O)c4c3C2Cc2ccc3c(c2-4)OCO3)cc1 (configuration not stated)" systemname="OVCAR-5 ovarian" unitofmeasurement=% measuredresult=45.8
molecule=O=c1oc2ccccc2cc1-c1csc(N=Nc2c(O)[nH]c3ccc(Br)cc23)n1 systemname="OVCAR-5 ovarian" unitofmeasurement=% measuredresult=97.6
molecule="COc1ccc(C2CC(c3cc(OC)c(OC)c(OC)c3)=NN2c2ccc(S(N)(=O)=O)cc2)cc1 (configuration not stated)" systemname="OVCAR-5 ovarian" unitofmeasurement=% measuredresult=92.3
molecule=O=C(NCc1cccnc1)c1ccc([N+](=O)[O-])o1 systemname="OVCAR-5 ovarian" unitofmeasurement=% measuredresult=-1.25
molecule=O=[N+]([O-])c1ccc(C=C2C(Cl)=C(Cl)C(Cl)=C2Cl)cc1 systemname="OVCAR-5 ovarian" unitofmeasurement=% measuredresult=112
molecule=COc1cc(/C=C/c2cc(/C=C/c3ccc(O)c(OC)c3)n(-c3ccccc3)n2)ccc1O systemname="OVCAR-5 ovarian" unitofmeasurement=% measuredresult=-7.74
molecule=CCCCCCCC/C=C\CCCCCCCCOc1cccc(CC(=O)NCC[N+](C)(C)C)c1 systemname="OVCAR-5 ovarian" unitofmeasurement=% measuredresult=51.8
molecule=CCCCCCCCCCCCSC1=CC(=O)C=CC1=O systemname="OVCAR-5 ovarian" unitofmeasurement=% measuredresult=89.7
molecule=O=C1c2[nH]cc(CN[C@@H]3CCCN3)c2C(=O)c2c1c(O)c1ccccc1c2O systemname="OVCAR-5 ovarian" unitofmeasurement=% measuredresult=-95
molecule=COc1cc2nc(SCc3cc(OC)c(OC)c(OC)c3)n(-c3ccccc3OC)c(=O)c2cc1OC systemname="OVCAR-5 ovarian" unitofmeasurement=% measuredresult=89
molecule=COc1ccc(Cn2c(Br)c3c(c2-c2cc(OC)c(OC)c(OC)c2)CCc2sc(N)nc2-3)cc1 systemname="OVCAR-5 ovarian" unitofmeasurement=% measuredresult=37.1
molecule=CCC(=O)Nc1nnc(Cc2ccc(OC)c(OC)c2)s1 systemname="OVCAR-5 ovarian" unitofmeasurement=% measuredresult=85.9
molecule=OC[C@@H](O)[C@@H](O)CO systemname="OVCAR-5 ovarian" unitofmeasurement=% measuredresult=102
molecule=Cc1cc(NS(=O)(=O)c2ccc(NC(=O)COc3ccc(-c4cc5ccccc5[nH]4)cc3)cc2)no1 systemname="OVCAR-5 ovarian" unitofmeasurement=% measuredresult=52.3
molecule=COC(=O)c1cc(-c2ccc(C)cc2)n(C(=O)CSc2nc3sc(C(N)=O)c(C)c3c(=O)n2Cc2ccccc2)n1 systemname="OVCAR-5 ovarian" unitofmeasurement=% measuredresult=110
molecule="CC1SC(c2ccc(Cl)cc2)N(CCc2cccs2)C1=O (configuration not stated)" systemname="OVCAR-5 ovarian" unitofmeasurement=% measuredresult=8.29
molecule="Cc1c(C)n(CC(O)CNC2CCCCC2C)c2ccccc12 (configuration not stated)" systemname="OVCAR-5 ovarian" unitofmeasurement=% measuredresult=-58.8
molecule=COc1ccc(-c2nc3sccn3c2/C=C/C(=O)c2cc(OC)c(OC)c(OC)c2)cc1OC systemname="OVCAR-5 ovarian" unitofmeasurement=% measuredresult=79.1
molecule="CC(C)NCC(O)COc1ccc(CCOCC2CC2)cc1 (configuration not stated)" systemname="OVCAR-5 ovarian" unitofmeasurement=% measuredresult=107
molecule="O=C1CCC(N2C(=O)c3cccc(NCCOCCOCCNC(=O)c4cc5c(o4)C(=O)c4ccccc4C5=O)c3C2=O)C(=O)N1 (configuration not stated)" systemname="OVCAR-5 ovarian" unitofmeasurement=% measuredresult=-90.8
molecule=CCCCCCCC/C=C\CCCCCCCCOc1cccc(CC(=O)NCC[N+]2(C)CCCCC2)c1 systemname="OVCAR-5 ovarian" unitofmeasurement=% measuredresult=39.6
molecule=CCCCCCCC/C=C\CCCCCCCCOc1cccc(CC(=O)NCC[N+]2(C)CCOCC2)c1 systemname="OVCAR-5 ovarian" unitofmeasurement=% measuredresult=65.5
molecule=Cn1c2ccc(Cl)cc2c2nn(C(=O)c3ccccc3)c(=O)nc21 systemname="OVCAR-5 ovarian" unitofmeasurement=% measuredresult=99.5
molecule=N#C/C(=C\c1ccc[nH]1)c1cc2ccccc2[nH]1 systemname="OVCAR-5 ovarian" unitofmeasurement=% measuredresult=82.4
molecule=O=C(Nc1ccccc1O)c1ccc(NS(=O)(=O)c2cccc3cccnc23)cc1 systemname="OVCAR-5 ovarian" unitofmeasurement=% measuredresult=16.5
molecule=Cc1ccc(S(=O)(=O)c2ccc3[nH]c(=O)[nH]c(=O)c3c2)cc1 systemname="OVCAR-5 ovarian" unitofmeasurement=% measuredresult=107
molecule=COc1ccc(C2OCC(C)(C)CO2)cc1OC systemname="OVCAR-5 ovarian" unitofmeasurement=% measuredresult=100
molecule=Fc1ccccc1Nc1ccc2nnc(-c3ccncc3)n2n1 systemname="OVCAR-5 ovarian" unitofmeasurement=% measuredresult=97.3
molecule=Nc1nc(-c2ccnc(Cl)c2)nn1-c1nc2ccccc2s1 systemname="OVCAR-5 ovarian" unitofmeasurement=% measuredresult=95.9
molecule=COc1nc2c(cc1S(=O)(=O)c1ccccc1)CCc1c-2cnn1-c1ccccc1 systemname="OVCAR-5 ovarian" unitofmeasurement=% measuredresult=81.1
molecule="CC1CCCCN1S(=O)(=O)c1ccc(CN=C=S)cc1 (configuration not stated)" systemname="OVCAR-5 ovarian" unitofmeasurement=% measuredresult=93
molecule=COc1cc2cc(Oc3ccc(NC(=O)Nc4ccc(Cl)c(C(F)(F)F)c4)cc3)c(C)nc2cc1OCCN1CCCCC1 systemname="OVCAR-5 ovarian" unitofmeasurement=% measuredresult=67.1
molecule=COc1c(Cl)ccc2c(-c3nc4cc(Cl)c(F)cc4s3)cc(=O)oc12 systemname="OVCAR-5 ovarian" unitofmeasurement=% measuredresult=96.5
molecule="CCOC(=O)C(CC(c1ccccc1)N1CCCCC1)[N+](=O)[O-] (configuration not stated)" systemname="OVCAR-5 ovarian" unitofmeasurement=% measuredresult=104
molecule=COc1cc(C(F)(F)F)ccc1-c1cc(-c2ccc(F)cc2)n[nH]1 systemname="OVCAR-5 ovarian" unitofmeasurement=% measuredresult=88.7
molecule=Cn1c2ccccc2c2nn(Cc3ccccc3)c(=O)nc21 systemname="OVCAR-5 ovarian" unitofmeasurement=% measuredresult=92.8
molecule="O=C1OCC2=C1C(c1ccc3c(c1)OCO3)CC(=O)N2c1cccc(Cl)c1 (configuration not stated)" systemname="OVCAR-5 ovarian" unitofmeasurement=% measuredresult=106
molecule=Cc1oc2c(c1C(=O)N1CC[C@@H](N)C1)C(=O)c1c(c(O)c3ccccc3c1O)C2=O systemname="OVCAR-5 ovarian" unitofmeasurement=% measuredresult=85.3
molecule="COc1ccc(/C=N/OCC(O)CN2CCC(O)CC2)cc1OC1CCCC1 (configuration not stated)" systemname="OVCAR-5 ovarian" unitofmeasurement=% measuredresult=101
molecule=Cc1cccc2c(=O)c3c(sc12)c(NCCCN)nc1ccccc13 systemname="OVCAR-5 ovarian" unitofmeasurement=% measuredresult=51.7
molecule=COc1cc(-c2nc(SC(C)C)nc(Nc3ccccc3C)c2C#N)cc(OC)c1OC systemname="OVCAR-5 ovarian" unitofmeasurement=% measuredresult=99.1
